Task for the reader: assign each of the following compounds its reported solubility kinetic.
experiment: Kinetic solubility of compound in PBS at pH 2 by HPLC analysis; format: physicochemical; details: read-out: Kinetic_solubility
Answers are plain numbers, in µg/mL.

# compound, unit symbol, assay result
records = [
    ("Cc1ccccc1-n1nnnc1C(c1cncnc1)N(Cc1cccc(C(F)(F)F)c1)C1CC1 (racemic)", "µg/mL", 1.5),
]

Need solubility kinetic for each of these compounds.
1. Cc1ccccc1-n1nnnc1C(c1cccnc1)N(Cc1cccc(C(F)(F)F)c1)C1CC1 (racemic)
2. COc1ccc(C(F)(F)F)cc1CN(C1CC1)C(c1cccnc1)c1nnnn1-c1ccccc1C (racemic)
3. Cc1ccccc1N(C)C(=O)C(c1cncnc1)N(Cc1cccc(C(F)(F)F)c1)C1CC1 (racemic)

Response given:
[12, 12.5, 11]

====

Task for the reader: assign each of the following compounds its reported pEC50.
tested on: Plasmodium falciparum; assay: Antiplasmodial activity against asexual blood stage Plasmodium falciparum 3D7 infected in human RBC assessed as parasite growth inhibition incubated for 72 hrs by SYBR Green dye based fluorescence assay; type: functional, organism-based; conditions: rbc
Numbers only, as −log10 of the molar value.

Worked examples follow.
# compound, readout label, assay result
rows = [
    ("COc1ccc(Br)cc1CN(C)C(c1ccccc1)c1nnnn1-c1ccccc1C (single isomer, unassigned; (+))", "pEC50", 5.82),
    ("Cc1ccccc1-n1nnnc1C(c1cncnc1)N(Cc1cc(F)cc(C(F)(F)F)c1)C1CC1 (single isomer, unassigned; (+))", "pEC50", 6.46),
    ("COc1ccc(Br)cc1CN(C)C(c1ccccc1)c1nnnn1-c1ccccc1C (single isomer, unassigned; (-))", "pEC50", 5.36),
    ("Cc1ccccc1-n1nnnc1C(c1cncnc1)N(Cc1cc(F)cc(C(F)(F)F)c1)C1CC1 (single isomer, unassigned; (-))", "pEC50", 6.38),
    ("COc1ccc(C(F)(F)F)cc1CN(C)C(c1cccnc1)c1nnnn1-c1ccccc1C (single isomer, unassigned; (+))", "pEC50", 5.82),
]

Here is the next item to consider.
Challenge: Find the measured pEC50 of COc1ccc(Br)cc1CN(C)C(c1ccccc1)c1nnnn1-c1ccccc1C (racemic) and report it.
Response given: 5.46

====

system: Plasmodium falciparum; experiment: Antiplasmodial activity against drug resistant Plasmodium falciparum Dd2 infected in human RBC assessed as parasite growth inhibition incubated for 72 hrs by SYBR Green dye based fluorescence assay; assay type: functional, organism-based; conditions: Plasmodium falciparum, Dd2, Erythrocyte, 72 h
Task for the reader: assign each of the following molecules its reported EC50.
Answers are plain numbers, in µM.

Worked examples follow.
# molecule, unit symbol, assay result
data = [
    ("CCc1ccccc1N(C)C(=O)C(c1cncnc1)N(Cc1cccc(C(F)(F)F)c1)C1CC1 (racemic)", "µM", 0.57),
    ("COc1ccc(C(F)(F)F)cc1CN(C)C(c1ccccc1)c1nnnn1-c1ccccc1C (racemic)", "µM", 3.7),
    ("COc1ccccc1CN(C)C(c1ccccc1)c1nnnn1-c1ccccc1C (racemic)", "µM", 10),
    ("Cc1ccccc1N(C)C(=O)C(c1cncnc1)N(Cc1cccc(OC(F)(F)F)c1)C1CC1 (racemic)", "µM", 0.59),
]

Here is the next item to consider.
Challenge: Send back Plasmodium falciparum EC50 of O=C(C(c1cccnc1)N(Cc1cccc(C(F)(F)F)c1)C1CC1)N1CCCCC1 (racemic) only.
Response given: 4.2

====

test system: Plasmodium falciparum; assay: Antiplasmodial activity against asexual blood stage Plasmodium falciparum 3D7 infected in human RBC assessed as parasite growth inhibition incubated for 72 hrs by SYBR Green dye based fluorescence assay; type: functional, organism-based; conditions: Plasmodium falciparum, 3D7, Erythrocyte, 72 h
readout label: pEC50
Numbers only, as −log10 of the molar value.

# molecule, pEC50
data = [
    ("FC(F)(F)c1cccc(CN(C2CC2)C(c2cccnc2)c2nnnn2C2CC2)c1 (racemic)", 5.82),
]

Need pEC50 for each of these molecules.
1. Cc1ccccc1-n1nnnc1C(c1cccnc1)N(C)Cc1cc(C(F)(F)F)ccc1F (racemic)
2. Cc1ccccc1-n1nnnc1C(c1cncnc1)N(Cc1cc(F)cc(C(F)(F)F)c1)C1CC1 (racemic)

Response given:
1. 6.00
2. 6.43

Need pEC50 for each of these molecules.
1. Cc1ccccc1N(C)C(=O)C(c1cccnc1)N(Cc1cccc(OC(F)(F)F)c1)C1CC1 (racemic)
2. Cc1ncccc1C(c1nnnn1C1CC1)N(C1CC1)C1(c2cccc(C(F)(F)F)c2)CC1 (racemic)
3. COc1ccccc1CN(C)C(c1ccccc1)c1nnnn1-c1ccccc1C (racemic)
4. CCC(C(=O)Nc1cccc(Cl)c1)N1C(=O)C(C)N=C(c2ccccc2)c2ccccc21 (stereo not drawn)
5. CCc1ccccc1N(C)C(=O)C(c1cncnc1)N(Cc1cccc(C(F)(F)F)c1)C1CC1 (racemic)

Response given:
6.49
4.85
5.01
6.51
6.62

====

test system: Plasmodium falciparum; test: Antiplasmodial activity against drug resistant Plasmodium falciparum Dd2 infected in human RBC assessed as parasite growth inhibition incubated for 72 hrs by SYBR Green dye based fluorescence assay; format: functional, organism-based; details: Plasmodium falciparum, Dd2, Erythrocyte, 72 h
Task for the reader: assign each of the following compounds its reported pEC50.
Answers are plain numbers, as −log10 of the molar value.

Need pEC50 for each of these compounds.
1. CN(C(=O)C(c1cncnc1)N(Cc1cccc(C(F)(F)F)c1)C1CC1)c1ccccc1 (racemic)
2. Cc1ccccc1-n1nnnc1C(c1cncnc1)N(Cc1ccc(F)c(C(F)(F)F)c1)C1CC1 (racemic)
3. CCc1ccccc1N(C)C(=O)C(c1cccnc1)N(Cc1cccc(C(F)(F)F)c1)C1CC1 (racemic)

Response given:
1: 5.70; 2: 6.17; 3: 6.32

Challenge: Find the measured pEC50 of CCCN(C(c1cccnc1)c1nnnn1-c1ccccc1C)C1(c2cccc(C(F)(F)F)c2)CC1 (racemic) and report it.
Response given: 6.39

====

Task for the reader: assign each of the following compounds its reported EC50.
system: Plasmodium falciparum; test: Antiplasmodial activity against asexual blood stage Plasmodium falciparum 3D7 infected in human RBC assessed as parasite growth inhibition incubated for 72 hrs by SYBR Green dye based fluorescence assay; type: functional, organism-based; conditions: Plasmodium falciparum, 3D7, Erythrocyte, 72 h
Give bare numbers, in nM.

Worked examples follow.
# compound, unit symbol, EC50
measured = [
    ("Cc1ccccc1N(C)C(=O)C(c1cncnc1)N(Cc1cccc(C(F)(F)F)c1)C1CC1 (racemic)", "nM", 400),
    ("CC(=O)c1ccc(NC(=O)c2ccc(NC(=O)C3COc4ccccc4O3)cc2)cc1 (centres undefined)", "nM", 710),
    ("Cc1ccccc1-n1nnnc1C(c1cncnc1)N(Cc1cccc(C(F)(F)F)c1)C1CC1 (racemic)", "nM", 400),
]

Here is the next item to consider.
Challenge: Find the measured EC50 of COc1ccc(C(F)(F)F)cc1CN(C1CC1)C(c1cccnc1)c1nnnn1-c1ccccc1C (racemic) and report it.
Response given: 490

====

system: Plasmodium falciparum; assay: Antiplasmodial activity against Plasmodium falciparum mature stage V gametocyte assessed as inhibition of male gametocyte formation by luciferase reporter assay; type: functional, organism-based
readout label: EC50

Challenge: Find the measured EC50 of Cc1ccccc1-n1nnnc1C(c1cccnc1)N(Cc1cccc(C(F)(F)F)c1)C1CC1 (racemic) and report it.
Response given: > 25 µM

====

Task for the reader: assign each of the following molecules its reported solubility kinetic.
assay: Kinetic solubility of compound in PBS at pH 2 by HPLC analysis; type: physicochemical; details: read-out: Kinetic_solubility

Worked examples follow.
# molecule, solubility kinetic
rows = [
    ("Cc1ccccc1N(C)C(=O)C(c1cccnc1)N(Cc1cccc(C(F)(F)F)c1)C1CC1 (racemic)", "> 100 µg/mL"),
    ("Cc1ccccc1N(C)C(=O)C(c1cccnc1)N(Cc1cc(C(F)(F)F)ccc1F)C1CC1 (racemic)", "> 47 µg/mL"),
]

Here is the next item to consider.
Challenge: Find the measured solubility kinetic of O=C(C(c1cccnc1)N(Cc1cccc(C(F)(F)F)c1)C1CC1)N1CCCCC1 (racemic) and report it.
Response given: > 100 µg/mL

Values were extracted from ChEMBL document CHEMBL5149972.
